Just for reference, ChEMBL document CHEMBL1157539 is where these values come from.

Test system: Plasmodium falciparum
Assay: GSK_TCMDC: Inhibition of Plasmodium falciparum 3D7 in whole red blood cells, using parasite LDH activity as an index of growth. Test compounds present at 2uM
Format: functional
endpointLabel: Inhibition (%)
Give the value, in units of %, as a plain number.

Entry under test: CCN(CC)/C(=N/C(=N)NCc1ccc(Cl)cc1Cl)NCCCCCCN/C(=N\C(=N)NCc1ccc(Cl)cc1Cl)N(CC)CC . Its Inhibition was 100

Briefly, Inhibition measured for Cc1ccc(NC(=O)c2ccc3ncccc3c2)cc1OC1CCN(Cc2ccco2)C1.O=C(O)C(F)(F)F (stereo not drawn) : 86

Inhibition measured on Cc1ccc(CN2CCCN(Cc3cccc(NC(=O)c4ccc(Cl)c(Cl)c4)c3)CC2)cc1.O=C(O)C(F)(F)F = 96

Form field Inhibition, entry CC(C)N1CCC(N(Cc2ccc(-c3ccc(C(F)(F)F)cc3)cc2)C(=O)Cn2c(CCc3cccc(F)c3F)nc(=O)c3cccnc32)CC1.O=C(O)C(O)C(O)C(=O)O : 100

Inhibition reported for this molecule Cc1cc2c(cc1C(F)(F)F)N(C(=O)Nc1cc(OCCN(C(C)C)C(C)C)cc(C(F)(F)F)c1)CC2.Cl : 100

Short answer for CC(C)(C)Oc1ccc(NC(=O)c2ccccc2O)cc1 : Inhibition was 86

For record COc1ccc(C(C)Nc2nc(N)c3cc(OC)c(OC)cc3n2)cc1.Cl (stereo not drawn) the listed Inhibition is 100

According to the records, this molecule COc1ccc(CC(Cc2ccc(OC)cc2)NCC(O)c2cccc(Cl)c2)cc1 (stereo not drawn) displays Inhibition of 100

###

Tested on: Plasmodium falciparum
Assay: GSK_TCMDC: Inhibition of Plasmodium falciparum 3D7 in whole red blood cells, using parasite LDH activity as an index of growth. Test compounds present at 2uM
Format: functional
Assignment: determine reported Inhibition for the given molecules.
Could you give me the number in %? Just the number is fine.

The molecule listed as COc1ccc(Nc2nc(N3CCCC3)c3ccccc3n2)cc1.Cl shows Inhibition equal to 100

Noted for CN1CCN(c2cc3c(cc2Br)CCN3C(=O)Nc2ccc(-c3cnc4ccccc4c3)cc2)CC1 : its Inhibition reads 99

The measured Inhibition associated with CCc1cc(C(=O)c2cccc(C)c2)c(NC(=O)CN2CCN(C(=O)c3ccco3)CC2)s1 reads 91

The molecule listed as CC(C)CNCc1cccc(-c2ccc(CN(C(=O)NCCc3ccccc3)C3CCN(Cc4ccccc4)CC3)cc2)c1.O=C(O)C(F)(F)F has a reported Inhibition of 98

Inhibition for COc1ccc2sc(CNCCCNc3cc(=O)c4ccccc4[nH]3)c(Cl)c2c1.Cl is 85

Record CN(C(=O)Cc1ccc(Cl)cc1)C1CCN(CCCCCNC(=O)/C=C/c2ccc(Cl)c(Cl)c2)CC1 , field Inhibition: 83

The reported value for CNS(=O)(=O)CCNCc1ccc(-c2ccc3ncnc(Nc4ccc(OCc5ccccc5)cc4)c3c2)o1 in terms of Inhibition is 100

// recorded Inhibition for NCC1CCCN1Cc1ccc(-c2ccc(-c3nc4ccccc4[nH]3)s2)cc1.O=C(O)C(F)(F)F (centres undefined) : 98

Documented Inhibition of COCCNCc1cccc(-c2cc3nccc(Nc4ccc(Oc5ccccc5)cc4)c3cc2Cl)c1 : 99

###

Kindly state Inhibition for each of the entries shown.
Test system: Plasmodium falciparum
Test: GSK_TCMDC: Inhibition of Plasmodium falciparum 3D7 in whole red blood cells, using parasite LDH activity as an index of growth. Test compounds present at 2uM
Type: functional
Answer with a number only, understood to be in %.

Note to self: Inhibition recorded for COc1cc2nc(NCCc3ccccc3)nc(NCCCc3ccccc3)c2cc1OC was 100

Noted for COc1cc(NC(=O)/C=C/c2ccc(-c3ccccc3)cc2)ccc1OCCN(C(C)C)C(C)C.Cl : its Inhibition reads 94

For CN(C)CCOc1ccc(N2CCN(CCCCNC(=O)c3ccc(NC(=O)c4ccc(Cl)cc4)cc3)CC2)cc1 the compound record lists Inhibition as 99

Reported Inhibition for CCc1c(C)nc(-n2nc(C)cc2NC(=O)C(CC)c2ccccc2)[nH]c1=O (centres undefined) was 97

The reported Inhibition of the compound Cc1ccc(NC(=O)NC2CCN(CCCCCNC(=O)C3CC3c3ccc(Cl)c(Cl)c3)CC2)cc1 (centres undefined) was 100

For reference, reported Inhibition for CCCCc1ccc(-c2nc(NC(=O)Nc3[nH]c(-c4ccccc4)nc3C(=O)OCC)c(C(=O)OCC)[nH]2)cc1 stands at 95

Consider Cc1nn(CC(C)C)c2sc(C(=O)N3CCN(S(=O)(=O)c4ccc(C#N)cc4)CC3)cc12 . Its measured Inhibition is 99

For record Cc1ccc2[nH]c(C)cc(=NN=Cc3ccccc3Cl)c2c1 the listed Inhibition is 100

Note to self: Inhibition recorded for Cc1cccc2nc(-c3cccc(-c4cccc(NC(=O)c5ccncc5)c4)c3)[nH]c12 was 100

Summary for this compound, Nc1c2c(nc3ccc(C(=O)Nc4ccccc4)cc13)CCCC2 : Inhibition is 100

Item: Nc1nc(N)c2c3c(ccc2n1)CCC3 | Inhibition: 92

Form: compound = Fc1ccc2[nH]c(-c3ccc(-c4ccc(CN5CCN(CCN6CCOCC6)CC5)cc4)s3)nc2c1.O=C(O)C(F)(F)F ; Inhibition = 99

Form field Inhibition, entry CCC[C@@H]([C@@H](CC(C)C)C(=O)N[C@@H](CCC/N=C(/N)NS(C)(=O)=O)C(=O)Nc1nccs1)N(O)C=O : 95

For record Cc1ccc(Cn2nc(Cl)c(N3CCNCC3)cc2=O)cc1NC(=O)Nc1ccc(-c2ccccc2)cc1.O=C(O)C(F)(F)F the listed Inhibition is 98

The compound O=C(NCC1CC1)C1CCN(C(c2ccc(Cl)cc2)c2ccc(Cl)cc2)CC1 showed Inhibition equal to 99

// field: Inhibition; key: FC(F)(F)c1ccc2[nH]c(-c3cccc(-c4cccc(CNCCN5CCNCC5)c4)c3)nc2c1.O=C(O)C(F)(F)F ; value = 92

Entry Cc1ccc(-n2c(=O)c3cccnc3n2CC(=O)Nc2cccc(C)c2C)cc1 ; Inhibition = 96

Cl.Oc1cccc(Nc2ccnc3cc(-c4ccccn4)ccc23)c1 yielded Inhibition of 96

Sure, the documented Inhibition for CN(C)CCOc1cc(NC(=O)Nc2ccc(-c3ccncc3)c3ccccc23)ccc1I is 97

###

Give measured Inhibition for each item. Keep answers brief.
System: HepG2
Assay: GSK_TCMDC: Percent inhibition of human HepG2 cell line. Test compounds present at 10uM.
Assay type: functional
Kindly provide the numeric value in % only, without the unit symbol.

// CC(C)NCc1ccc(-c2ccc(CN3CCCC(c4ccccc4)C3)cc2)c(C(=O)NC2Cc3ccccc3C2)c1.O=C(O)C(F)(F)F (configuration not stated) : Inhibition value = 41

The measured Inhibition associated with CCc1c(CCNCCCCCCNCCc2ccc(OC)c(OC)c2CC)ccc(OC)c1OC.Cl reads 58

CCNC(C)(C)CN(Cc1ccc(-c2ccc(C(F)(F)F)cc2)cc1)C(=O)Cn1c(SCc2ccc(F)cc2)nc(=O)c2c1CCC2.O=C(O)C(O)C(O)C(=O)O yielded Inhibition of 99

Entry CCN(CC)CCN(Cc1ccc(-c2ccc(C(F)(F)F)cc2)cc1)C(=O)Cn1c(CCc2cc(F)cc(F)c2F)nc(=O)c2ccccc21.O=C(O)C(O)C(O)C(=O)O ; Inhibition = 36

Inhibition recorded for this molecule, Cc1cccc2nc(-c3cccc(-c4cccc(NC(=O)Nc5ccc(Cl)c(Cl)c5)c4)c3)[nH]c12 , is 24

Field Inhibition (entry CCCCCN1C(=O)C(c2ccccc2)(c2ccccc2)N=C1N ) reads 18

# Inhibition of CN(C)CCCNc1c2ccccc2nc2ccccc12 = 31

CS(=O)(=O)c1ccccc1CNC(=O)c1cccc(-c2ccc(-c3nc4cc(C(F)(F)F)ccc4[nH]3)cc2)c1 yielded Inhibition of 86

Inhibition measured on Cc1nc(C(=O)N2CCCC[C@H]2CNC(=O)c2ccc(-c3ccc(N4CCCC4=O)cc3C)cc2)c(-c2ccc(F)cc2)s1 = 6

Lab note: measured Inhibition of CCC(C)NS(=O)(=O)c1ccc2nc(Nc3cccc(SC)c3)n(C(C)C(C)C)c2c1 (configuration not stated) was 0

// field: Inhibition; key: CN1CCC(NCc2ccc(-c3ccc(S(=O)(=O)NCc4ccccc4)c(F)c3)cc2)CC1.O=C(O)C(F)(F)F ; value = 53

Looking up CCn1ncc(Cl)c1CN(C)S(=O)(=O)c1ccc(Br)cc1 , I found its Inhibition recorded as 9

Please fill in: Inhibition reported for COc1cccc(NC(=O)c2cc(C(=O)Nc3cccc(OC)c3)cc([N+](=O)[O-])c2)c1 = 1

// field: Inhibition; key: COc1ccc(CSC2CCCCC23NC(=S)NC3=S)cc1 (configuration not stated) ; value = 0

Inhibition reading for CC(C#N)Cc1ccc(-c2cnc(N)c3cc(-c4ccnc(N)n4)ccc23)cc1 (configuration not stated) : 56

Consider COc1cc2c(cc1OCCN1CCC(N3CCCCC3)CC1)N(C(=O)/C=C/c1ccccc1Cl)CC2 . Its measured Inhibition is 36

Record CCN1CCC(N(Cc2ccc(-c3ccc(Cl)cc3)cc2)C(=O)Cn2c(CCc3cccc(F)c3F)cc(=O)c3ccccc32)CC1.O=C(O)C(O)C(O)C(=O)O . Reported Inhibition: 100
